Value source: the supplement of paper PMC13380429

Overview of reported morphology score across a group of compounds:
Test system: Vero E6 infected with SARS-CoV-2
ASSAY REMARKS: morphology score (similarity to uninfected cells); higher = more like uninfected cells
CONDITION CONTEXT: 24 h
READOUT KIND: morphology score

>>> reported("O=S(=O)(NCC1CC1)c1ccc(Nc2nccc(N3CCCc4cc(O)ccc43)n2)cc1 [pyrintegrin] (0.833333 µM)")
0.71
>>> reported("O=C1c2ccccc2-c2n[nH]c3cccc1c23 [pyrazolanthrone] (10 µM)")
0.0961
>>> reported("O=C(NO)c1ccc(O)c(O)c1 [didox] (10 µM)")
0.0981
>>> reported("CC(C)CNc1ccnc(NCc2csc(-c3ccccc3)n2)n1 (0.833333 µM)")
-0.0256
>>> reported("CNc1ccc([N+](=O)[O-])cc1-n1cnc(-c2ccc(C(F)(F)F)cc2)c1 (10 µM)")
0.117

###

System: Vero E6 infected with SARS-CoV-2
ASSAY REMARKS: inhibition of SARS-CoV-2 cytopathic effect; higher = more antiviral protection, active = above 15
CONDITION CONTEXT: 8.33 nM; 48 h
READOUT KIND: inhibition of SARS-CoV-2 cytopathic effect (%)

>>> reported("C=C[C@H]1CN2CC[C@H]1C[C@@H]2[C@@H](O)c1ccnc2ccc(OC)cc12")
-5.1
>>> reported("CC(=O)[C@]1(O)Cc2c(O)c3c(c(O)c2[C@@H](O[C@H]2C[C@H](N)[C@H](O)[C@H](C)O2)C1)C(=O)c1ccccc1C3=O")
1.96
>>> reported("CC(=O)NCCCOc1ccc(C(=O)N2CCC(N3C(=O)CCc4ccccc43)CC2)cc1")
-2.2

###

Test system: Vero E6 infected with SARS-CoV-2
ASSAY REMARKS: SARS-CoV-2 infection rate relative to infected DMSO; higher = more infection, active = 60 or less
CONDITION CONTEXT: 24 h
Overview of reported SARS-CoV-2 infection rate across a group of molecules:
READOUT KIND: SARS-CoV-2 infection rate (%)

>>> reported("Cc1ccnc(NC(=O)C(C)c2cccc(C(=O)c3ccccc3)c2)c1 (stereo not drawn) [piketoprofen] (10 µM)")
107
>>> reported("COc1cc(COc2cc(N)c(Cl)cc2C(=O)CCC2CCN(CCNS(C)(=O)=O)CC2)cc(OC)c1 (0.833333 µM)")
102
>>> reported("CCCCOc1ccc(-c2cncc(C(=O)NCc3cccnc3N3CCOCC3)c2)cc1Cl (10 µM)")
108

###

Tested on: Vero E6 infected with SARS-CoV-2
ASSAY REMARKS: inhibition of SARS-CoV-2 cytopathic effect; higher = more antiviral protection, active = above 15
CONDITION CONTEXT: 1 nM; 48 h
READOUT KIND: inhibition of SARS-CoV-2 cytopathic effect (%)

>>> reported("N[C@@H](Cc1cc(-c2ccc(Cl)cc2Cl)cc(CP(=O)(O)O)c1O)C(=O)O")
0.73
>>> reported("Nc1ncnc2c1C(=O)N(c1ccc([C@H]3CC[C@H](CC(=O)O)CC3)cc1)CCO2")
4.58
>>> reported("NS(=O)(=O)Nc1ncnc(OCCOc2ncc(Br)cn2)c1-c1ccc(Br)cc1")
-1.74
>>> reported("Cc1sc2c(c1C)C(c1ccc(Cl)cc1)=N[C@@H](CC(N)=O)c1nnc(C)n1-2")
-0.7
>>> reported("CN1[C@@H]2CC[C@H]1C[C@@H](OC(=O)c1cc(Cl)cc(Cl)c1)C2")
-0.2
>>> reported("OC[C@H]1O[C@@H](Oc2ccc(O)cc2)[C@H](O)[C@@H](O)[C@@H]1O")
-0.81
>>> reported("Cl/C=C\\C[N+]12CN3CN(CN(C3)C1)C2 [1-((Z)-3-chloroallyl)-1,3,5,7-tetraazaadamantan-1-ium]")
0
>>> reported("C[C@@H](c1nc(-c2ccc(C#N)cc2)cs1)[C@](O)(Cn1cncn1)c1cc(F)ccc1F")
-2.38
>>> reported("CCCCCCCCCCCCCCCCCCCCCC(=O)O")
2.81
>>> reported("CCCc1nc(C(C)(C)O)c(C(=O)OCc2oc(=O)oc2C)n1Cc1ccc(-c2ccccc2-c2nnn[nH]2)cc1")
-1.27
>>> reported("Cc1ccc(S(=O)(=O)Cc2nc(-c3ccc(C(=O)NCc4cccnc4)cc3)oc2C)cc1")
-2.69
>>> reported("CN(C)C(=O)Nc1cccc(-c2ccc(N(C)C)cc2)c1")
-1.57
>>> reported("NCCCC[C@@H]1NC(=O)[C@@H](Cc2c[nH]c3ccccc23)NC(=O)[C@H](c2ccccc2)NC(=O)[C@@H]2C[C@@H](OC(=O)NCCN)CN2C(=O)[C@H](Cc2ccccc2)NC(=O)[C@H](Cc2ccc(OCc3ccccc3)cc2)NC1=O [pasireotide]")
-6.41
>>> reported("O=C1NCC2(CCN(CCc3ccccc3)CC2)O1 [fenspiride]")
-2.77
